target: P2Y2 in neonatal rat cardiomyocytes (NRCMs) (Rattus norvegicus, UniProt P41232); test: cell-based; conditions: EC50 for ATP, NRCMs; in the absence of Compound 89
Sequence (P41232 whole entry): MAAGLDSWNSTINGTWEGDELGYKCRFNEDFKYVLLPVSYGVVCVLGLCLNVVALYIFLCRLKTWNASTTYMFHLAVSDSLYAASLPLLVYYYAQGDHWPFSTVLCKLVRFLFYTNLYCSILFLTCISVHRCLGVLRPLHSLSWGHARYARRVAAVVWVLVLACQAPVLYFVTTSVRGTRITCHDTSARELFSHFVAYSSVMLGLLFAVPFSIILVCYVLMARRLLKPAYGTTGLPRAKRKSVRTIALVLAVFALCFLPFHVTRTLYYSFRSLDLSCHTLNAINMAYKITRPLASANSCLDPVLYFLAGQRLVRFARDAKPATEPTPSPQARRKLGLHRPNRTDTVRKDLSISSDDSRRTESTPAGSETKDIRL
reportedProperty: pEC50
Conceptually, pEC50 converts a concentration in mol/L into minus its log10.

Find pEC50 (P2Y2 in neonatal rat cardiomyocytes (NRCMs) (Rattus norvegicus, UniProt P41232)) for the entry Nc1ncnc2c1ncn2[C@@H]1O[C@H](COP(=O)(O)OP(=O)(O)OP(=O)(O)O)[C@@H](O)[C@H]1O [ATP, adenosine-5′-triphosphate, reference compound] 5.59

###

target: UniProtKB P41231; experiment: cell-based; details: EC50 for Compound 89, hP2Y2 stably-expressing 1321N1 cells; in the presence of 10 nM ATP
Sequence (P41231 whole entry): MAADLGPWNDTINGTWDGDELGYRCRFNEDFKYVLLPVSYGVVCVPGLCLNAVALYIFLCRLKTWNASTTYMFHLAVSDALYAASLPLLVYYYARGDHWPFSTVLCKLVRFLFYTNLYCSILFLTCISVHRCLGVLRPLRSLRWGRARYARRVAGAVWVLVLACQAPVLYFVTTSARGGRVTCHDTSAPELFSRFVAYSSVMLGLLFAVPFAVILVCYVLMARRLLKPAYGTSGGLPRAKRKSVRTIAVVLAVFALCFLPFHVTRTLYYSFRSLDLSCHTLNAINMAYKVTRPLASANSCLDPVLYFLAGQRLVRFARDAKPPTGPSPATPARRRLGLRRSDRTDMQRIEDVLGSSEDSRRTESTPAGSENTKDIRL
reportedProperty: EC50 (nM)
API: value field is a number in nM; no unit string.

Return reported EC50; argument: "CCN(Cc1ccc(F)cc1)Cc1cc(=O)c2ccc(C)c(C)c2[nH]1" 2500
